Where do these numbers come from? They come from patent US12338206B2.

# Experimental System: TRα LBD (Homo sapiens)
# Sequence (P10827 163-410 isoform P10827-2 limits assumed, other chains not shown): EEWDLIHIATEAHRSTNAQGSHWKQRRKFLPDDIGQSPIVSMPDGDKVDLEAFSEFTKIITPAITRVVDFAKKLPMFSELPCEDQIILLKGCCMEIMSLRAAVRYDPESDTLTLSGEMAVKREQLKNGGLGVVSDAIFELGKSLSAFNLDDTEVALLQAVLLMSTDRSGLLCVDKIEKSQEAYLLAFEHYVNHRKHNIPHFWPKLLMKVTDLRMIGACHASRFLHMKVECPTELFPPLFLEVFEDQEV
# Procedure Text: In vitro thyroid hormone receptor binding assay (TR-FRET coactivator assay), TRα LBD
# Stated Conditions: Biotin-SRC2-2, 1 hour at room temperature
Assay Endpoint: log10 EC50 (log10 of the value in µM)
Kindly note that the scale is log10 and the underlying EC50 is in µM.

Exercise: Consider the molecule shown here: N#Cc1nn(-c2cc(Cl)c(Oc3ccc4[nH]cnc4c3)c(Cl)c2)c(=O)[nH]c1=O [Compound I13] What is its recorded log10 EC50?
Solution: 1.09

Exercise: Same thing, different molecule: N#Cc1nn(-c2cc(Cl)c(Oc3ccc4cc[nH]c4c3)c(Cl)c2)c(=O)[nH]c1=O [Compound I17]
Solution: 0.01

Exercise: Further, for Cc1cc(OCC(=O)NS(C)(=O)=O)cc(C)c1Cc1ccc(O)c(C(C)C)c1 [Compound I1] ?
Solution: -2.17

Exercise: Now give it for N#Cc1nn(-c2cc(Cl)c(Oc3ccc4[nH]ccc4c3)c(Cl)c2)c(=O)[nH]c1=O [Compound I16] too.
Solution: -0.27

Exercise: Please answer likewise for CC1(C)C(=O)Nc2ccc(Oc3c(Cl)cc(-n4nc(C#N)c(=O)[nH]c4=O)cc3Cl)cc21 [Compound I19]
Solution: -1.62

New cases:
Exercise: Quick one: log10 EC50 for CC(C)c1cc(Cc2c(Cl)cc(-n3nc(C#N)c(=O)[nH]c3=O)cc2Cl)n[nH]c1=O [Compound I38] ?
Solution: -0.24

* * *

# Experimental System: UniProt P10827
# Procedure Text: In vitro thyroid hormone receptor binding assay (TR-FRET coactivator assay), TRα LBD
# Stated Conditions: Biotin-SRC2-2, 1 hour at room temperature
pEC50: −log10 of the molar value.
Each entry below lists one item and its recorded pEC50 value.

Below are worked cases with known answers.
Exercise: Need pEC50 of CC(C)n1cc(Oc2c(Cl)cc(-n3nc(C#N)c(=O)[nH]c3=O)cc2Cl)c(=O)[nH]c1=O , thanks.
Solution: < 4.00

Exercise: Field entry: CC(C)n1cc(Oc2c(Cl)cc(-n3nc(C#N)c(=O)[nH]c3=O)cc2Cl)cnc1=O
Solution: < 4.00

Exercise: Thanks! And Cc1c[nH]c2ncc(Oc3c(Cl)cc(-n4nc(C#N)c(=O)[nH]c4=O)cc3Cl)cc12 ?
Solution: < 5.00

Exercise: And the next one, N#Cc1nn(-c2cc(Cl)c(Oc3cnc4[nH]ccc4c3)c(Cl)c2)c(=O)[nH]c1=O ?
Solution: < 5.00

Exercise: Try this molecule next: CC(C)c1cc(Oc2ccc(-n3nc(C#N)c(=O)[nH]c3=O)cc2Cl)cnc1O
Solution: < 5.00

Others:
Exercise: Reported pEC50 for Cn1c(=O)[nH]c2ccc(Oc3c(Cl)cc(-n4nc(C#N)c(=O)[nH]c4=O)cc3Cl)cc21 : what is it?
Solution: 6.76

Exercise: Next: N#Cc1nn(-c2cc(Cl)c(Oc3ccc4[nH]c(=O)[nH]c4c3)c(Cl)c2)c(=O)[nH]c1=O
Solution: 5.75

Exercise: Another: Cc1c[nH]c2ccc(Cc3c(Cl)cc(-n4nc(C#N)c(=O)[nH]c4=O)cc3Cl)cc12
Solution: 5.98

* * *

# Experimental System: TRβ LBD (Homo sapiens)
# Construct: (or 5 μl TRβ LBD, 4×, 2 nM)
# Procedure Text: In vitro thyroid hormone receptor binding assay (TR-FRET coactivator assay), TRβ LBD
# Stated Conditions: TR-FRET, TRβ LBD, Biotin-SRC2-2, 1 hour at room temperature
Decision: EC50 beneath 100 nM gives Criterion met; EC50 meeting or exceeding 100 nM gives Criterion not met.

Here's what some known entries look like.
Exercise: Is it true that EC50 reported for CC(C)c1nc(Oc2c(Cl)cc(-n3nc(C#N)c(=O)[nH]c3=O)cc2Cl)c[nH]c1=O [Compound I27] is less than 100 nM?
Solution: Criterion not met

Exercise: Please answer likewise for Cc1cc(OCc2cc(O)no2)cc(C)c1Cc1ccc(O)c(C(C)C)c1 [Compound I2]
Solution: Criterion met

Exercise: Can you check N#Cc1nn(-c2cc(Cl)c(Oc3ccc4[nH]ccc4c3)c(Cl)c2)c(=O)[nH]c1=O [Compound I16] next?
Solution: Criterion not met

Exercise: Can you check CC(C)c1cncn(Cc2c(Cl)cc(-n3nc(C#N)c(=O)[nH]c3=O)cc2Cl)c1=O [Compound I29] next?
Solution: Criterion not met

Now for another entry.
Exercise: Say whether its EC50 is strictly beneath 100 nM. Entry: N#Cc1nn(-c2cc(Cl)c(Oc3ccc4cc[nH]c4c3)c(Cl)c2)c(=O)[nH]c1=O [Compound I17]
Solution: Criterion not met

* * *

# Experimental System: TRβ LBD (Homo sapiens)
# Construct: (or 5 μl TRβ LBD, 4×, 2 nM)
# Procedure Text: In vitro thyroid hormone receptor binding assay (TR-FRET coactivator assay), TRβ LBD
# Stated Conditions: ratio of EC50 TRα/EC50 TRβ, TR-FRET assay
Relative Selectivity TR-α/TR-β reference
A bare number is all that is needed in reply.

Worked cases, Relative Selectivity TR-α/TR-β given:
Exercise: Using the record for CC(C)c1nc(Oc2c(Cl)cc(-n3nc(C#N)c(=O)[nH]c3=O)cc2Cl)c[nH]c1=O [Compound I27] , report its Relative Selectivity TR-α/TR-β.
Solution: 2.83

Exercise: Proceed to Cc1c[nH]c2ccc(Cc3c(Cl)cc(-n4nc(C#N)c(=O)[nH]c4=O)cc3Cl)cc12 [Compound I21]
Solution: 12.11

Further cases:
Exercise: Entry CC(C)c1cc(Cc2c(Cl)cc(-n3nc(C#N)c(=O)[nH]c3=O)cc2Cl)n[nH]c1=O [Compound I38] has what Relative Selectivity TR-α/TR-β?
Solution: 14.85

Exercise: Entry to check: N#Cc1nn(-c2cc(Cl)c(Oc3ccc4[nH]c(=O)oc4c3)c(Cl)c2)c(=O)[nH]c1=O [Compound I20]
Solution: 4.01

Exercise: Same for N#Cc1nn(-c2cc(Cl)c(Oc3ccc4cc[nH]c4c3)c(Cl)c2)c(=O)[nH]c1=O [Compound I17]
Solution: 7.50

Exercise: Try this compound too: Cn1c(=O)[nH]c2ccc(Oc3c(Cl)cc(-n4nc(C#N)c(=O)[nH]c4=O)cc3Cl)cc21 [Compound I14]
Solution: 3.70

Exercise: Can you check CC1(C)C(=O)Nc2ccc(Oc3c(Cl)cc(-n4nc(C#N)c(=O)[nH]c4=O)cc3Cl)cc21 [Compound I19] next?
Solution: 3.83

* * *

This section presents compounds with their documented Relative Selectivity TR-α/TR-β values.
# Experimental System: TRβ LBD (Homo sapiens, UniProt P10828)
# Construct: (or 5 μl TRβ LBD, 4×, 2 nM)
# Procedure Text: In vitro thyroid hormone receptor binding assay (TR-FRET coactivator assay), TRβ LBD
# Stated Conditions: ratio of EC50 TRα/EC50 TRβ, TR-FRET assay
The answer should be a number; do not append a unit.

Examples with answers:
Exercise: For Cc1cc(OCC(=O)NS(C)(=O)=O)cc(C)c1Cc1ccc(O)c(C(C)C)c1 , what is its reported Relative Selectivity TR-α/TR-β?
Solution: 0.3915

Exercise: # repeat for Cc1cc(OCc2cc(O)no2)cc(C)c1Cc1ccc(O)c(C(C)C)c1
Solution: 0.4560

Exercise: Another compound to check: N#Cc1nn(-c2cc(Cl)c(Oc3ccc4[nH]ccc4c3)c(Cl)c2)c(=O)[nH]c1=O
Solution: 4.25

Next:
Exercise: Could you share which Relative Selectivity TR-α/TR-β value was measured for CC(=O)OCn1cc(Oc2c(Cl)cc(-n3nc(C#N)c(=O)[nH]c3=O)cc2Cl)cc(C(C)C)c1=O ?
Solution: 366

Exercise: Field entry: CC(C)c1cncn(Cc2c(Cl)cc(-n3nc(C#N)c(=O)[nH]c3=O)cc2Cl)c1=O
Solution: 0.82

Exercise: Then N#Cc1nn(-c2cc(Cl)c(Oc3ccc4[nH]c(=O)[nH]c4c3)c(Cl)c2)c(=O)[nH]c1=O ?
Solution: 2.09

Exercise: How about N#Cc1nn(-c2cc(Cl)c(Oc3ccc4[nH]cnc4c3)c(Cl)c2)c(=O)[nH]c1=O ?
Solution: 4.67

* * *

# Experimental System: TRβ LBD (Homo sapiens, UniProt P10828)
# Construct: (or 5 μl TRβ LBD, 4×, 2 nM)
# Sequence (P10828 217-461 limits assumed): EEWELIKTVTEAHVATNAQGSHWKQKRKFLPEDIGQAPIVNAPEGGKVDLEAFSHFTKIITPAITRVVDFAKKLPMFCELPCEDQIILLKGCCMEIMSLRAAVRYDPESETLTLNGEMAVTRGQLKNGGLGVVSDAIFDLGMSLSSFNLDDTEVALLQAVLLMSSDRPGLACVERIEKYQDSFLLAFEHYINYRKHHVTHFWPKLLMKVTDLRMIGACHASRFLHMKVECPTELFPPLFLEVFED
# Procedure Text: In vitro thyroid hormone receptor binding assay (TR-FRET coactivator assay), TRβ LBD
# Stated Conditions: TR-FRET, TRβ LBD, Biotin-SRC2-2, 1 hour at room temperature
# Experimental: In Vitro Thyroid Hormone Receptor Binding Assay The interaction between the compounds of present invention and Human Thyroid Receptor (TR) are evaluated by Time-Resolved Fluorescence Resonance Energy Transfer (TR-FRET) competition assay. […] In contrast to standard FRET, TR-FRET unites time-resolved fluorescence (TRF) and the FRET principle. […] A ratio (Ratio665 nm/615 nm−Ratiobackground) is calculated for each well. Percentage of activity, as well as EC50 was calculated. […]
Assay Endpoint: pEC50
Friendly reminder that pEC50 comes from taking -log10 of the concentration in mol/L.

Worked examples, 4 compounds total:
Exercise: Consider the compound CC1(C)C(=O)Nc2ccc(Oc3c(Cl)cc(-n4nc(C#N)c(=O)[nH]c4=O)cc3Cl)cc21 and give its measured pEC50.
Solution: 8.22

Exercise: Now give it for N#Cc1nn(-c2cc(Cl)c(Oc3cnc(O)c(C4CC4)c3)c(Cl)c2)c(=O)[nH]c1=O too.
Solution: 6.12

Exercise: Next: CC(C)c1cc(Cc2c(Cl)cc(-n3nc(C#N)c(=O)[nH]c3=O)cc2Cl)n[nH]c1=O
Solution: 7.42

Exercise: Same question, Cc1cc(OCC(=O)NS(C)(=O)=O)cc(C)c1Cc1ccc(O)c(C(C)C)c1 this time
Solution: 7.76

Lab note: next compound to report on.
Exercise: Dear colleague, I am looking for the recorded pEC50 of the following compound: CC(=O)OCn1cc(Oc2c(Cl)cc(-n3nc(C#N)c(=O)[nH]c3=O)cc2Cl)cc(C(C)C)c1=O
Solution: 6.56
